B1: TPR t1 (parent)
chain: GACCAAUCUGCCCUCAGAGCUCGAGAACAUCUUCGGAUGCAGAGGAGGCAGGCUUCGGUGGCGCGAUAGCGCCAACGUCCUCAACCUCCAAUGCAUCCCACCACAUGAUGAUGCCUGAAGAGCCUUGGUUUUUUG

Variants of: B1
Test: polymerase ribozyme fitness, log enrichment relative to wild type (log ratio); higher = more active; in vitro selection for triplet polymerase activity
measure: polymerase ribozyme fitness (log ratio)

variant key | number
C3A U14G A119U G120A | -1.62
G71C U81G | -5.8
C4G U78C C88U C94G C124U | -2.42
G17U G135U | -3.6
C80U C85A | -2.89
G60U A83C G117A | -2.26
C3U C8G A29G | -1.43
C12U C62U C70G G93A | -5.44
C82G A118U | 0.179
C56U C73A A100U | -1.12
U7G G44A C62G A74U C80G G117C | -7
G17A U78C U129C | -3.37
C56A C88U A95C A108G | -3.49
C22U A37G G61C C64A U112C U126G G128A | -6.8
U9G G60A A90C | -0.347
G17A A66G | -4.85
U9G G17U G60C U96C C104U G117A | -3.16
C72G A111U U130G | -4.27
G63A U78C A91G A121G | 0.408
C49G G63C C80U U112A C124U | -5.99
C15G C97U | -2.23
C62U U106C | -0.141
G44A G48C C56A | -1.29
C53U C86G C89G C97U C124U | -1.92
G45U G63U G113A | -3.01
A2C A16G C49A U55G G120C C124U | -1.14
C11G C79U | -0.0995
C22A U59A | -5.52
U9A C73G | -0.255
G17U G44U C72G C85U U96A A121G C124G | -3.95
G63U U81G C97U U106A G120A U133C | -3.57
U87A C89U G128A | -2.15
A26U C56U C72U | -3.04
U7G C70U A83C C97A | -5.37
C40A C72G U78C A121G U132A | 0.388
A18U C62G A121U | -2.71
C12A U14A C28U C85U | -3.93
G48U C72A | -0.467
A46U G47A G127C | -3.12
A66U A75U G113A | -2.74
C97U C124U | 0.498
G60A C80A C88A | -3.61
C56A G63U G77C C115G | -4.37
C13U C56G U59G A95C | -2.3
A41U G77A U116C U129C | -3.98
C62U C70A C94G | -3.73
A43U G71A | -2.46
C12A C115A | -0.819
G44U U59G | -0.461
A26G C40U G63C C79A C101U G117A | -5.91
U7A U106A C124A | 1.98
U92C U132C | -1.85
C4A C73A U81A | -3.04
C73A C88G A111U U129G | -5.91
C12U G71C C82G | -1.53
U9A A26U C40G G58C U125G | -4.12
C3A C12U G42A G44C C79U C88A A118G G120A | -1.44
C12A C20A G61C | -4.95
C40U C98A | -5
G71C G120C | 0.219
A2G C34A U55A U112C | -0.554
C62U A83C C88U G120A | 0.0358
G48C U106G | -1.5
C88G C104A U112G | -4.26
C72U C114U | -1.89
A46U A74U A91G | -3.52
C40U C72U | -1.69
A5G G19A C72U U87A G117U | -4.71
C97U G120U U130C | -0.251
A18C C56G U59A A100U A111G G127C | -3.88
C11A G45U | -2.48
G52A C101U | 0.00367
A5G G44A G45U G63U C79U C124A | -1.7
G47A G135U | -2.25
A37U G57C C85U U125A | -1.95
A29G G45U C64U | -2.76
G36A G48U C56U U112A G117U G120U G127C U133A | -6.88
C13G C56A A74G C101G U112C U130A | -3.67
G47U C115A | -2.9
C4G C8A C20G A111C C123G | -4.96
C49U U87A | -0.416
G60A C80U | -1.64
C34A G93A C101U | -3.81
C13G G63C C70A C124A | 0.905
G35A U87A | -3.5
C20U A26G G60C A90C | -4.37
A5U C13A C15G C56A A121U | -1.44
C4U G44U C76A G77U A91C G120A | -2.7
G60A C88U G120A G122U | 0.196
G35C C53G C56U U130A | -6.86
C13A G60U A91U G120A | -2.31
